All values here come from paper PMC9030138.

Target: α-amylase (Sus scrofa, UniProt P00690)
Sequence (P00690 16-511): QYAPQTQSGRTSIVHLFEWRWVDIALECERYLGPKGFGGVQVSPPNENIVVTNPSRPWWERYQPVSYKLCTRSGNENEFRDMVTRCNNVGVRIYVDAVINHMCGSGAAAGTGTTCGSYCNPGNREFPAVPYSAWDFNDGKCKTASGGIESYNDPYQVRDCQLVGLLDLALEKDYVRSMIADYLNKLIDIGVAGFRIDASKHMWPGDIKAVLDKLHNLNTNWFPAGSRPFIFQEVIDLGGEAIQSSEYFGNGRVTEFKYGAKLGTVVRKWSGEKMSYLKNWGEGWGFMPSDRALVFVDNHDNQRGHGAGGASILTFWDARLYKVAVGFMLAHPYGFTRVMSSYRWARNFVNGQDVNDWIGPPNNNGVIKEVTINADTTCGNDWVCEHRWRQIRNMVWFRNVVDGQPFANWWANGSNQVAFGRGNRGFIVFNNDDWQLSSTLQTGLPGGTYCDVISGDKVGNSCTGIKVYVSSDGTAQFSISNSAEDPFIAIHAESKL
pIC50: −log10 of the molar value.
ENDPOINT_NAME: pIC50

> print(dat)
                                   compound  endpoint.name  reported.value
1  O=C(O)c1cc(O)c2c(c1)C(=O)c1cccc(O[C@@H]3O[C@H](CO)[C@@H](O)[C@H](O)[C@H]3O)c1C2=O [Rhein-8-b-D-glucopyranoside]          pIC50            4.41
